# System: MDA-MB-468 breast
# Protocol description: NCI-60 one-dose screen, 48 h
# Study conditions: 10 µM unless noted
About 83,000 compounds went through this panel and 20% of them were active in at least one assay; those are over-represented in the sample as a whole. Active and inactive are the calls of the source. Rule for the calls: active = growth percent below 10; inactive = the rest.
Respond using exactly one of the listed classes: yes (active), no (inactive)

Please review the entries below; each comes with its answer.
Molecule: O=P(OCCCl)(OCCCl)C(O)c1ccccc1Cl (configuration not stated)
Target under test: MDA-MB-468 breast
Category label: no

Molecule: O=C(Nc1ccc(Oc2cccc(F)c2)c(Cl)c1)c1cnccn1
Target under test: MDA-MB-468 breast
Category label: yes

Molecule: CC(C)c1ccc(Cn2ccc3c4c(N)nc(NC5CC5)nc4ccc32)cc1
Target under test: MDA-MB-468 breast
Category label: yes

Molecule: O=C(CN1C(=O)S/C(=C\c2ccccc2)C1=O)Nc1ncc(Cc2ccccc2Cl)s1
Target under test: MDA-MB-468 breast
Category label: no

Molecule: CC1(C)C(=O)/C(=C\c2ccc(C(F)(F)F)cc2)C[C@]2(C)[C@H]3CC[C@@H]4[C@H]5[C@H](C(=O)/C=C/c6ccc(C(F)(F)F)cc6)CC[C@]5(CO)CC[C@@]4(C)[C@]3(C)CC[C@@H]12
Target under test: MDA-MB-468 breast
Category label: no

Molecule: OCCN1CCN(c2cc(-c3cccc(OC(F)(F)F)c3)nc3ccc(N4CCCC4)cc23)CC1
Target under test: MDA-MB-468 breast
Category label: no

Molecule: O=c1ccn(C2CCCO2)c(=O)[nH]1 (configuration not stated)
Target under test: MDA-MB-468 breast
Category label: no

Molecule: O=C1c2cccnc2C(=O)c2c1c(C(=O)OCCN1CCOCC1)c1ccccn21
Target under test: MDA-MB-468 breast
Category label: yes

Molecule: CCCCn1c(=O)c2c(nc3n2CCCN3CCc2ccc(OCC(=O)NCCN(CC)CC)cc2)n(CCCC)c1=O
Target under test: MDA-MB-468 breast
Category label: no

Molecule: Cc1ccccc1Nc1cc(O)c2c(=O)cc(-c3ccccc3)oc2c1
Target under test: MDA-MB-468 breast
Category label: yes

*Q* Lab log entry: CCCCC1CCc2cccc3c(SCC(=O)N(C)c4ccc(Cl)cc4)cc[n+]1c23 (configuration not stated) — outcome as called in the assay?
*A* no

*Q* Lab log entry: COc1ccc(-c2nn(-c3cccc(Cl)c3)cc2-c2c(C#N)c(N)n(N)c(=O)c2C#N)cc1 — outcome as called in the assay?
*A* no

*Q* Lab log entry: Cn1c(COC(=O)NCCc2ccccn2)nc2c(N3CCOCC3)nc(Cl)nc21 — outcome as called in the assay?
*A* yes

*Q* Lab log entry: CCOC(=O)C1=C(C)NC(SCc2cc(=O)oc3ccc(F)cc23)=N[C@@H]1c1cccc2ccccc12 — outcome as called in the assay?
*A* no

*Q* Lab log entry: Cc1cc(C2=NNC(=O)Cc3cc4c(cc32)OCCO4)cc(C)c1N — outcome as called in the assay?
*A* yes

*Q* Lab log entry: CO[C@@H](C)Cn1c(=O)n(C)c2cnc3ccc(-c4cncc(C(C)(C)O)c4)cc3c21 — outcome as called in the assay?
*A* yes

*Q* Lab log entry: CCOC(=O)C#Cc1c(C(=O)OCC)nnn1[C@@H]1O[C@H](COC(C)=O)[C@@H](OC(C)=O)[C@H]1OC(C)=O — outcome as called in the assay?
*A* no

*Q* Lab log entry: O=C1COCCN1c1ccc(NCc2cn(Cc3ccccc3)c3ccccc23)cc1 — outcome as called in the assay?
*A* yes

*Q* Lab log entry: COc1ccc2c(CCCCC(c3ccccc3)c3ccccc3)c3[n+](cc2c1OC)CCc1cc2c(cc1-3)OCO2 — outcome as called in the assay?
*A* yes

*Q* Lab log entry: c1ccc(N2N=C(c3cccc(Nc4ccncc4)c3)CC2c2ccc3c(c2)OCO3)cc1 (configuration not stated) — outcome as called in the assay?
*A* no

*Q* Lab log entry: CC1(C)OCC(COC(c2ccccc2)(c2ccccc2)c2ccccc2)O1 (configuration not stated) — outcome as called in the assay?
*A* no

*Q* Lab log entry: C#CC[C@H](N)C(=O)O — outcome as called in the assay?
*A* no

*Q* Lab log entry: N#Cc1ccc(C(=O)CSc2nc(Nc3ccc(S(N)(=O)=O)cc3)c3ccccc3n2)cc1 — outcome as called in the assay?
*A* no

*Q* Lab log entry: CCOc1nc(-c2ccccc2)cc2c(O)c(-c3nnco3)[nH]c(=O)c12 — outcome as called in the assay?
*A* no

*Q* Lab log entry: COc1ccc(/C=N/NC(=O)c2c(N)nn(C)c2Nc2ccccc2)cc1Oc1ccccc1 — outcome as called in the assay?
*A* no

*Q* Lab log entry: O=C(Nc1ccc(Cl)cc1F)c1cc(Br)ccc1O — outcome as called in the assay?
*A* yes
